- Measurement Protocol: qHTS for Inhibitors of human tyrosyl-DNA phosphodiesterase 1 (TDP1): qHTS in cells in presence of CPT; note: nearly all actives have a fitted effect of over 55% in size
- Settings: chicken DT40 Tdp1-/-;hTDP1 cells + 20 nM CPT, ATP luminescence, 48 h; series mostly up to 46.2 µM
In all, about 420,000 compounds went through this assay and about 50,000 (12%) were called active. Inconclusive results (about 26%) are left out. Calls come from the whole dose curve; as a rule, active = well fitted inhibition curve with a large enough effect; inconclusive = small, poorly fitted or top-dose-only effect; inactive = flat fitted curve, though single readings scatter. The full list was thinned out, with actives kept by preference.
Can you answer with just one of these options? y (active), n (inactive)

For orientation, consider the following solved cases.
| Compound | Classification |
| --- | --- |
| O=C(NC1CCCCC1)c1ccc(CNc2c(N3CCOCC3)c(=O)c2=O)cc1 | n |
| Cc1ccc(OCC(=O)Nc2ccc3oc(=O)ccc3c2)cc1C | n |
| Cc1c(NC(=O)C(C)OC(=O)c2cc3c4ccccc4n(C)c3s2)c(=O)n(-c2ccccc2)n1C (stereo not drawn) | n |

# input What did the test return for CC(C)CCNC(=O)c1ccc2c(Cl)c3c(nc2c1)CCC3 ?
# output n

# input Assay result, entry Cc1ccc2[nH]c(=O)c(CN(CCCN(C)C)C(=O)Nc3cccc(Cl)c3)cc2c1 — outcome?
# output y

# input Which result was noted for this compound in the test: O=C(NC1CCN(C(=S)Nc2ccc(Cl)cc2)CC1)C1CCCCC1
# output n

# input Outcome? C=C1CCN([C@@H](Cc2ccccc2)C(=O)N2CCOCC2)S(=O)(=O)c2ccccc21
# output n

# input Hi team, can someone confirm the assay call for COCCCNCC(=O)Nc1sc(C)c(C)c1C(=O)OC ?
# output n

Values compiled from PubChem BioAssay AID686979.
